- Target under test: Integrin alpha-V/beta-3 (Homo sapiens, UniProt P05106+P06756)
- Sequence (P05106 27-788 limits assumed): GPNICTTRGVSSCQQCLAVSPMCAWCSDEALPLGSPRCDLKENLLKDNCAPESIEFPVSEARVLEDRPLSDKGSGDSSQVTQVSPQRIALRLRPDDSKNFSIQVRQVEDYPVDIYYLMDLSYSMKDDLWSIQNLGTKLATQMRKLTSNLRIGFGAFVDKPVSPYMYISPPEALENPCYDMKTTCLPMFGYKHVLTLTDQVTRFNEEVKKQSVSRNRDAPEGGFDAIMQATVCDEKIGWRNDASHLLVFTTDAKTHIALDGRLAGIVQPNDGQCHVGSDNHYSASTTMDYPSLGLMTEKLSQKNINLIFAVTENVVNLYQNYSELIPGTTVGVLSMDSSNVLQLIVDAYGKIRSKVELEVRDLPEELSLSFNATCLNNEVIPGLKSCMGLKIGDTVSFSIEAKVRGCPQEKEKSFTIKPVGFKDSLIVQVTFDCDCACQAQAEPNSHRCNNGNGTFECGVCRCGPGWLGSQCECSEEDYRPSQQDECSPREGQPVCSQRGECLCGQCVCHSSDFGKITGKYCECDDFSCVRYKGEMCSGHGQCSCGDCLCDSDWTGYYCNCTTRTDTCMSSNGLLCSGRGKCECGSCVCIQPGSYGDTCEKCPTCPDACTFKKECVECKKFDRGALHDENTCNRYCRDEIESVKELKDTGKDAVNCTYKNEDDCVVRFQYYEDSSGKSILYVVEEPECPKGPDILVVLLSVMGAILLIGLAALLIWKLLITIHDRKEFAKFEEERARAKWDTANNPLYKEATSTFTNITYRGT
- Sequence (P06756 31-889 limits assumed): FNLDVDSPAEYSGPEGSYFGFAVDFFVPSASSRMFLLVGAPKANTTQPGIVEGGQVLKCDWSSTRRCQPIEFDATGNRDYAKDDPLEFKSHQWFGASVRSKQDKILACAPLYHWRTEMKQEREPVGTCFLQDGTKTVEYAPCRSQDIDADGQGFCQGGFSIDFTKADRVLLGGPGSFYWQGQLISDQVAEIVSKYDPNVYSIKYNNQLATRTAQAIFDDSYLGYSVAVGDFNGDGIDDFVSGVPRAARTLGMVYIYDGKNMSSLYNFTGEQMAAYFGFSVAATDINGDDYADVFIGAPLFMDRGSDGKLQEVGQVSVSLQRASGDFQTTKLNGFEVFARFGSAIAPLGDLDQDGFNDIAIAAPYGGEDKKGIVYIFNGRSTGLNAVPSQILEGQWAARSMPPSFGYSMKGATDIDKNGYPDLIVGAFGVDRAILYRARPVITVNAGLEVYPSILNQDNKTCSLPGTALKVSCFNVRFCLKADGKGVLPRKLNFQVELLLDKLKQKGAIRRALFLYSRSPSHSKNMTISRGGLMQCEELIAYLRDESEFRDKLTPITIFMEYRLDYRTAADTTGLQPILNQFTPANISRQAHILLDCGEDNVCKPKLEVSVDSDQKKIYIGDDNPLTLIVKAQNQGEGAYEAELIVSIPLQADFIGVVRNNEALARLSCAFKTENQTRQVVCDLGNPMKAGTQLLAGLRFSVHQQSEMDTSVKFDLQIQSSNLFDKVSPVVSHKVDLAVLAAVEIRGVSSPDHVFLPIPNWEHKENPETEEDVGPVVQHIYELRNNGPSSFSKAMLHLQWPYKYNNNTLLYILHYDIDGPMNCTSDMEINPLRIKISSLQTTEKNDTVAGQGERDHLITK
- Sequence (P06756 891-1048 limits assumed): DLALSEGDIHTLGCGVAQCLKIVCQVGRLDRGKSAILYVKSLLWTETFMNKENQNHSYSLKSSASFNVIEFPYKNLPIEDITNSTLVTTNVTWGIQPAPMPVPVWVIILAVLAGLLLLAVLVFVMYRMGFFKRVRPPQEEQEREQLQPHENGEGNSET
- Method summary: Inhibition of human integrin alpha-v-beta-3 receptor by solid phase receptor assay
- Type: protein-complex assay
pIC50: −log10 of the molar value.
Parameter measured: pIC50

Example entries begin here.
Can you look up the measured pIC50 of CNc1cccc(CCOc2ccc(C3CC3CC(=O)O)cc2)n1 (centres undefined) for me? 8.13

Can you look up the measured pIC50 of O=C(O)CC1(c2ccccc2)CC1c1ccc(OCCc2ccc3c(n2)NCCC3)cc1 (centres undefined) for me? 5.57

Can you look up the measured pIC50 of CC1(C)C(CC(=O)O)C1c1ccc(OCCc2ccc3c(n2)NCCC3)cc1 (stereo in doubt; 83) for me? 8.89

Can you look up the measured pIC50 of CC1(C)C(CC(=O)O)C1c1ccc(OCCc2ccc3c(n2)NCCC3)cc1 (single isomer, unassigned; (-)) for me? 7.38

Can you look up the measured pIC50 of CC1(C)C(CC(=O)O)C1c1ccc(OCCc2ccc3c(n2)NCCC3)cc1 (stereo in doubt; (+)83) for me? 9.40

[1] O=C(O)CC1CC1c1ccc(OCCc2ccc3c(n2)NCCC3)cc1 (stereo in doubt; 7)
[2] O=C(O)CC1CC1c1ccc(OCCc2ccc3c(n2)NCCC3)c(F)c1F (centres undefined)
Identify the item whose pIC50 is the smaller number: 1 or 2 Pick one and reply with its label. 1

[1] O=C(O)CC1CC1c1ccc(OCCCNc2ccccn2)cc1 (centres undefined)
[2] O=C(O)CC1CC1c1ccc(OCCc2ccc3c(n2)NCCC3)cc1 (stereo in doubt; (+)7)
Between 1 and 2 , whose measured pIC50 reads higher? Pick one and reply with its label. 2

[a] O=C(O)CC1CC1c1ccc(OCCc2ccc3c(n2)NCCC3)c(O)c1 (centres undefined)
[b] CC(CC(=O)O)Cc1ccc(OCCCNc2ccccn2)cc1 (centres undefined)
Identify the item whose pIC50 is the smaller number: a or b Pick one and reply with its label. b

[A] O=C(O)CCC1CC1c1ccc(OCc2ccc3c(n2)NCCC3)cc1 (centres undefined)
[B] CC1(c2ccc(OCCc3ccc4c(n3)NCCC4)cc2)CC1CC(=O)O (centres undefined)
[C] O=C(O)CC(Cc1ccc(OCCCNc2ccccn2)cc1)c1ccccc1 (centres undefined)
Place the items in sequence of falling pIC50. # list labels per requested ordering C, B, A
(C: 8.10, B: 7.44, A: 6.00)
